Field IC50: reported value for Glycogen synthase kinase-3 alpha (Homo sapiens, UniProt P49840); entries drawn from several documents.
Answers are plain numbers, in nM.

Illustrative cases are given below, each with its answer.
[[record]]
entrysmiles = "COc1cc(Nc2cc(Oc3ccc(NC(=O)Nc4cc(C(C)(C)C)cc(NS(C)(=O)=O)c4OC)c4ccccc34)ccn2)ccc1C(=O)NCCN1CCNCC1"
readoutvalue = 674

[[record]]
entrysmiles = "COCCOCCOCCOc1cc(Nc2nccc(Oc3ccc(NC(=O)Nc4cc(C(C)(C)C)cc(NS(=O)(=O)C(F)(F)F)c4OC)c4ccccc34)n2)cc(OC)c1"
readoutvalue = 2620


Ask | For the compound "C#Cc1cc(Nc2nccc(Oc3ccc(NC(=O)Nc4cc(C(C)(C)C)nn4-c4ccc(OC)cc4)c4ccccc34)n2)cc(C(=O)NCCOCCOCCOC)c1" , what IC50 is on record?
Reply | 12200
